Target: High affinity nerve growth factor receptor (Homo sapiens, UniProt P04629)
Sequence (P04629 33-796 limits assumed): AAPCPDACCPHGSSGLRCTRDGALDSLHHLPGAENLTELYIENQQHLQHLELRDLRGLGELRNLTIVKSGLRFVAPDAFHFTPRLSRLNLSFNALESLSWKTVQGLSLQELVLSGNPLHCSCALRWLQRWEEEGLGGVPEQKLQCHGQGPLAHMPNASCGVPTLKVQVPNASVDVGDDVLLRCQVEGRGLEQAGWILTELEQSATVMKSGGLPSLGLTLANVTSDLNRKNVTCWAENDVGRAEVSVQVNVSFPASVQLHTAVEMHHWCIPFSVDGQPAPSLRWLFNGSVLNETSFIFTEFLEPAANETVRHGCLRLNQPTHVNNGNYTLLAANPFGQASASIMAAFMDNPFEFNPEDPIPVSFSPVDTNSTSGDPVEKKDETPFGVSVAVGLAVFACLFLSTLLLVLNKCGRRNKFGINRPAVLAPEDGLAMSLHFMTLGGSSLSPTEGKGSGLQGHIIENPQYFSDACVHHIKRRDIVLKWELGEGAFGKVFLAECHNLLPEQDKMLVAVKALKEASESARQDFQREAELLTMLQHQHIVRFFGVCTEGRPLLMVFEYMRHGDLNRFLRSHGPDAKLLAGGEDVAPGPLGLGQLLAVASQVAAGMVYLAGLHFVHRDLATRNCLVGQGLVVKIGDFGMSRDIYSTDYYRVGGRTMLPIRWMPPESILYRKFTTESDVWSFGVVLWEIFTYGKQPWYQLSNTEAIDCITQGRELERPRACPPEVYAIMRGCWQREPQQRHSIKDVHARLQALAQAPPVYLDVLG
Assay: Inhibition of human recombinant TrkA at 20 uM using ATP and 5FAM tagged TrkA peptide substrate incubated for 60 mins by microfluidics assay
Each entry belongs to exactly one class, chosen by where its inhibition falls: group A: < 30%; group B: ≥ 30% and < 80%; group C: ≥ 80%

For orientation, consider the following solved cases.
Cn1cc(-c2cncc(Oc3cccc(NC(=O)Nc4cc(C(C)(C)C)no4)c3)n2)cn1 ... group B
Cn1nc(C(C)(C)C)cc1NC(=O)Nc1cccc(Oc2cncc(-c3ccc(S(C)(=O)=O)cc3)n2)c1 ... group C
O=C(Nc1cccc(Oc2cncc(-c3ccsc3)n2)c1)Nc1cccc(C(F)(F)F)c1 ... group C
COc1ccc(-c2cncc(Oc3cccc(NC(=O)Nc4cc(C(C)(C)C)no4)c3)n2)cc1 ... group B
CC(C)c1ccc(NC(=O)Nc2cccc(Oc3cncc(-c4ccc(F)cc4)n3)c2)cc1 ... group B

Note: place this compound into its band. Item: CC(C)(C)c1cc(NC(=O)Nc2cccc(Oc3cncc(-c4ccc(S(C)(=O)=O)cc4)n3)c2)no1
group C

Same read-out for Cn1nc(C(C)(C)C)cc1NC(=O)Nc1cccc(Oc2cncc(-c3ccc(F)cc3)n2)c1 ?
group A

Same question for CC(C)c1ccc(NC(=O)Nc2cccc(Oc3cncc(-c4cncnc4)n3)c2)cc1 please.
group A

###

Molecular target: High affinity nerve growth factor receptor (Homo sapiens, UniProt P04629)
Experiment: Inhibition of human recombinant TrkA at 20 uM using ATP and 5FAM tagged TrkA peptide substrate incubated for 60 mins by microfluidics assay
reported metric: inhibition (%)
One number for each entry, in %.

CC(C)c1ccc(NC(=O)Nc2cccc(Oc3cncc(-c4ccsc4)n3)c2)cc1 ... 99.2
CC(C)c1ccc(NC(=O)Nc2cccc(Oc3cncc(-c4cnn(C)c4)n3)c2)cc1 ... 56.3
Cn1cc(-c2cncc(Oc3cccc(NC(=O)Nc4ccc(C(C)(C)C)cc4)c3)n2)cn1 ... 86.9
CC(C)c1ccc(NC(=O)Nc2cccc(Oc3cncc(-c4ccc(S(C)(=O)=O)cc4)n3)c2)cc1 ... 96.9
CC(C)(C)c1cc(NC(=O)Nc2cccc(Oc3cncc(-c4ccc(F)cc4)n3)c2)on1 ... 47.2

Record inhibition for all entries; do not skip any.
1. COc1ccc(-c2cncc(Oc3cccc(NC(=O)Nc4cccc(C(F)(F)F)c4)c3)n2)cc1
2. CC(C)(C)c1ccc(NC(=O)Nc2cccc(Oc3cncc(-c4ccc(F)cc4)n3)c2)cc1
3. Cn1nc(C(C)(C)C)cc1NC(=O)Nc1cccc(Oc2cncc(-c3ccsc3)n2)c1
4. Cn1cc(-c2cncc(Oc3cccc(NC(=O)Nc4cc(C(C)(C)C)nn4C)c3)n2)cn1
5. COc1ccc(-c2cncc(Oc3cccc(NC(=O)Nc4ccc(C(C)C)cc4)c3)n2)cc1
6. Cn1cc(-c2cncc(-c3ccc(N)cc3)n2)cn1
7. Nc1ccc(-c2cncc(Cl)n2)cc1
8. COc1ccc(-c2cncc(Oc3cccc(NC(=O)Nc4cc(C(C)(C)C)on4)c3)n2)cc1

95.5
32.2
26.8
61.1
98
46
47
98.6

Required: inhibition, one value per compound below.
1. CC(C)(C)c1cc(NC(=O)Nc2cccc(Oc3cncc(-c4ccsc4)n3)c2)no1
2. O=C(Nc1cccc(Oc2cncc(-c3cncnc3)n2)c1)Nc1cccc(C(F)(F)F)c1
3. CC(C)(C)c1cc(NC(=O)Nc2cccc(Oc3cncc(-c4ccc(F)cc4)n3)c2)no1
4. CS(=O)(=O)c1ccc(-c2cncc(Oc3cccc(NC(=O)Nc4cccc(C(F)(F)F)c4)c3)n2)cc1
5. CC(C)(C)c1ccc(NC(=O)Nc2cccc(Oc3cncc(-c4cncnc4)n3)c2)cc1
6. CC(C)(C)c1cc(NC(=O)Nc2cccc(Oc3cncc(-c4cncnc4)n3)c2)on1

[100, 69.3, 100, 90.8, 49.6, 79.4]
